# ASSAY COMMENT: Encapsulation efficiency of lipid nanoparticles, Quant-It RiboGreen RNA Assay
# Type: physicochemical
# MEASUREMENT CONDITIONS: lipid nanoparticle with the cationic lipid, luciferase mRNA
Let's look at some molecules and their measured Encapsulation efficiency (%).
Numbers only; they are read as %.

{"RECORD SMILES": "CCCCCCCCCOC(=O)C(C)(C)CCCCCC(CCCCCC(C)(C)C(=O)OCCCCCCCCC)OC(=O)CCCCCN(C)C", "Encapsulation efficiency (%)": 99.02}
{"RECORD SMILES": "CCCCCCCCCOC(=O)CC(C)(C)CCCCC(CCCCC(C)(C)CC(=O)OCCCCCCCCC)OC(=O)CCCN(C)C", "Encapsulation efficiency (%)": 93.72}
{"RECORD SMILES": "CCCCCCCCOC(=O)C(C)(C)CCCCCC(CCCCCC(C)(C)C(=O)OCCCCCCCC)OC(=O)C1CCN(C)CC1", "Encapsulation efficiency (%)": 83.29}

Here is another molecule to look at.
query: What does the data say about its Encapsulation efficiency (%)? Entry: `CCCCC(CC#CCOC(=O)C(C)(C)CCCCCC(CCCCCC(C)(C)C(=O)OCC#CCC(CCCC)CCCC)OC(=O)CCCN(C)C)CCCC`
result: 95.29
